Target: uPA receptor (urokinase-type plasminogen activator receptor) on U937 cells (UniProt Q03405)
Sequence (Q03405 23-305): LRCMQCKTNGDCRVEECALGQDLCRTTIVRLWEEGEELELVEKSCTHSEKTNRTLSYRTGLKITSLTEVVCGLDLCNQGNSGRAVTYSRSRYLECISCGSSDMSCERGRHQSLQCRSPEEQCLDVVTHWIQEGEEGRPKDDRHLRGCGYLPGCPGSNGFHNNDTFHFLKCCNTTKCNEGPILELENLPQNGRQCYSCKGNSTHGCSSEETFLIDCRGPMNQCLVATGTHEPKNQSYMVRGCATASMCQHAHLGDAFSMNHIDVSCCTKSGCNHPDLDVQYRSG
Assay: competition receptor-binding assay on U937 cells, ATF as competing ligand, metallopeptide at 1 µM
property_name: % Inhibition at 1 µM (%)

1 = Re-complexed Ac-Val-Ser-Asn-Lys-Tyr-Phe-Ser-Asn-Cys-Ile-His-Trp-NH2 (SEQ ID NO:10) (peptide)
2 = Re-complexed Ac-Val-Ser-Asn-Lys-Tyr-Cys-Phe-Ser-Asn-Ile-His-Trp-NH2 (SEQ ID NO:7) (peptide)
3 = Re-complexed Ac-Val-Ser-Asn-Lys-Tyr-Phe-Ser-Asn-Ile-His-Trp-Cys-NH2 (SEQ ID NO:12) (peptide)
Rank the substances listed above in increasing order of % Inhibition at 1 µM. Write the labels, ordered according to the request.
3, 2, 1
(3: 0%, 2: 18%, 1: 32%)

---

Target: oxytocin receptor of rat uterus cell membranes (rat) (UniProt P70536)
Sequence (P70536 whole entry): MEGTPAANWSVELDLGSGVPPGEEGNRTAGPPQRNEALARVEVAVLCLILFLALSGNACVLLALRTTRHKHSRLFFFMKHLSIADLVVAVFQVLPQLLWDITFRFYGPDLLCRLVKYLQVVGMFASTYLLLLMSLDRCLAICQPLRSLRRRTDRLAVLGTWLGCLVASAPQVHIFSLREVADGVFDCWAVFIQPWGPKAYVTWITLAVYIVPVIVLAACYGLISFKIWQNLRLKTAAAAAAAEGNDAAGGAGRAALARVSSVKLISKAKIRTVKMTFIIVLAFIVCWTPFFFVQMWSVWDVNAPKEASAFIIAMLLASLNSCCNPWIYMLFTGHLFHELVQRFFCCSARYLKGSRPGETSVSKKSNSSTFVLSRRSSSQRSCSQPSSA
Assay: competition with 3H-oxytocin on rat uterus membranes, metallopeptide at 1 µM
property_name: % Inhibition at 1 µM (%)

> print(dat)
                                  substance         property.name  recorded.measurement
1  Re-complexed Ala-Tyr-Ile-Gln-Asn-Ala-Cys-Ala-Leu-Gly-NH2 (SEQ ID NO:154) (peptide)  % Inhibition at 1 µM                    31
2  Re-complexed Ala-Tyr-Ile-Gln-Asn-Cys-Ala-Pro-Leu-Gly-NH2 (SEQ ID NO:155) (peptide)  % Inhibition at 1 µM                    42
3  Re-complexed Ala-Tyr-Ile-Gln-Asn-Ala-Pro-Leu-Gly-Cys-NH2 (SEQ ID NO:149) (peptide)  % Inhibition at 1 µM                     6
4  Re-complexed Ala-Tyr-Ile-Cys-Gln-Asn-Ala-Pro-Leu-Gly-NH2 (SEQ ID NO:157) (peptide)  % Inhibition at 1 µM                     0
5  Re-complexed Ala-Tyr-Ile-Gln-Asn-Ala-Ala-Leu-Gly-Cys-NH2 (SEQ ID NO:150) (peptide)  % Inhibition at 1 µM                     0

a = Re-complexed Ala-Tyr-Ile-Gln-Asn-Ala-Ala-Cys-Leu-Gly-NH2 (SEQ ID NO:152) (peptide)
b = Re-complexed Ala-Tyr-Ile-Gln-Asn-Ala-Cys-Pro-Leu-Gly-NH2 (SEQ ID NO:153) (peptide)
Hi, I'm comparing two records. Which one has the lower % Inhibition at 1 µM, a or b ? Let me know the label of the one you choose.
a

---

Target: oxytocin receptor of rat uterus cell membranes (rat) (UniProt P70536)
Assay: competition with 3H-oxytocin on rat uterus membranes, metallopeptide at 1 µM
property_name: % Inhibition at 1 µM (%)

P = Re-complexed Ala-Tyr-Cys-Ile-Gln-Asn-Ala-Pro-Leu-Gly-NH2 (SEQ ID NO:158) (peptide)
Q = Re-complexed Ala-Tyr-Ile-Gln-Asn-Ala-Ala-Leu-Cys-Gly-NH2 (SEQ ID NO:151) (peptide)
R = Re-complexed Ala-Tyr-Ile-Gln-Cys-Asn-Ala-Pro-Leu-Gly-NH2 (SEQ ID NO:156) (peptide)
Rank the substances listed above in increasing order of % Inhibition at 1 µM. Write the labels, ordered according to the request.
Q, P, R
